assay: Drug concentration in tibia of Sprague-Dawley rat assessed as accumulation in tibial plateau at 250 ug, IART measured for 168 hrs by LC-MS/MS analysis; format: ADME, tissue-based; settings: dose 250 µg, read-out: Drug uptake
reported endpoint: concentration at 168 h
Kindly write the number and append the unit.

State, in one line, measured concentration at 168 h of CN1Cc2cc(-c3cc(-c4cccc(C(N)=O)c4)no3)c(O[C@H]3CC[C@@H](O)CC3)cc2C1=O
42 µM

====

# key: entry, value: EC50
experiment: Inhibition of IL-6 production in human SW982 cells by Nano-Glo HiBit assay; details: SW982, read-out: pEC50 (converted)
Your answer is read as nM, so omit the unit and give the number.

State, in one line, measured EC50 of CNC(=O)CNc1ccc(-c2cc(-c3cccc(C(N)=O)n3)no2)c(O[C@H]2CC[C@@H](O)CC2)n1
631
